- METHOD_SUMMARY: solvent given as SMILES
- CONDITION_PARAMETERS: in CN(C)C=O
READOUT_TYPE: fluorescence lifetime (ns)

- Nc1ccc(N2C(=O)c3ccc4c5ccc6c7c(ccc(c8ccc(c3c48)C2=O)c75)C(=O)NC6=O)cc1: 2.9
- O=C(O)COc1ccc2[nH]c3c(c2c1)CCCC3=O: 1.91
- CCN(CC)c1ccc2c(-c3ccccc3C(=O)[O-])c3ccc(=[N+](CC)CC)cc-3oc2c1: 2.33
- NS(=O)(=O)c1ccc(N2N=C(c3ccc(O)cc3)CC2c2ccc(Cl)cc2)cc1 (stereo not drawn): 2.35
- CCCCCCC(CCCCCC)N1C(=O)c2cccc3c(-c4ccc(OC)c5ccccc45)ccc(c23)C1=O: 3.85
- CCN(CC)c1ccc2c(-c3ccc(S(=O)(=O)[O-])cc3S(=O)(=O)[O-])c3ccc(=[N+](CC)CC)cc-3oc2c1: 2.84
- Nc1ccc2c(c1)C(=O)NC2=O: 22
- Nc1ccc2c(-c3ccccc3C(=O)[O-])c3ccc(=[NH2+])cc-3oc2c1: 3.68
- CCC1=C(C)C2=C(c3cc(C(=O)Cl)cc(C4=C5C(C)=C(CC)C(C)=[N+]5[B-](F)(F)n5c(C)c(CC)c(C)c54)c3)c3c(C)c(CC)c(C)n3[B-](F)(F)[N+]2=C1C: 4.1
- O=C1/C(=C2\Sc3ccc(S(=O)(=O)O)cc3C2=O)Sc2ccc(S(=O)(=O)O)cc21: 4.85
- Cc1nc(-c2ccc(-n3c4ccccc4c4ccccc43)cc2)cc(-c2ccc(-n3c4ccccc4c4ccccc43)cc2)n1: 6.95
- CN(C)c1ccc(/C=C/c2nc3c4ccccc4c4ccccc4c3[nH]2)cc1: 0.37
- Cc1cc(=O)c2ccc(N)cc2o1: 3.37
- Cn1c(/C=C/c2ccc(/C=C/c3nc4ccccc4[nH]3)cc2)[n+](C)c2ccccc21: 1.11
- C[Si](C)(C)O[Si]1(O[Si](C)(C)C)n2c3c4ccccc4c2/N=C2N=C(/N=c4/c5ccccc5/c(n41)=N/C1=NC(=N\3)/c3ccccc31)c1ccccc1\2: 5.57
- CCOC(=O)CN(CC(=O)OCC)c1ccc(-c2cc(-c3ccccn3)nc(-c3ccccn3)c2)cc1: 6.02
- C(=C\c1nc2ccccc2[nH]1)/c1ccc(/C=C/c2nc3ccccc3[nH]2)cc1: 0.997
- CSc1sc(C(=O)c2ccccc2)c2nn[nH]c(=O)c12: 0.19

meta.source: the Deep4Chem optical property database
